Test system: DMS 273 small cell lung
Experiment Summary: NCI tumour cell line growth inhibition, 48 h
Metric: TGI

Study these solved cases before continuing.
- Molecule: "COc1cc(C)cc2c1[nH]c1ccccc12"
  Tgt: "DMS 273 small cell lung"
  Metric: "TGI"
  Observed Result: "> 25 µM"
- Molecule: "CN=c1ss/c(=N\\C(=S)N(C)C)n1-c1ccccc1"
  Tgt: "DMS 273 small cell lung"
  Metric: "TGI"
  Observed Result: "> 100 µM"
- Molecule: "O=C(O)COc1ccc(C(=O)/C(SS/C(C(=O)c2ccc(OCC(=O)O)c(Cl)c2Cl)=C2\\C=C(c3ccc(F)cc3)SS2)=C2/C=C(c3ccc(F)cc3)SS2)c(Cl)c1Cl"
  Tgt: "DMS 273 small cell lung"
  Metric: "TGI"
  Observed Result: "27.9 µM"

Query :: So what does the record say about TGI for COc1ccc(C(=O)NCCC2=CCCCC2)cc1 ?
Result :: > 100 µM

Query :: So what does the record say about TGI for CN1N=C(N)c2cn(C3OC(COP(=O)(O)O)C(O)C3O)c3ncnc1c23 (centres undefined) ?
Result :: > 5000 µM

Query :: So what does the record say about TGI for C#C[C@]1(O)CCC2C3CCc4cc(Oc5nc(F)nc(-n6c(C)nc7cc8ccccc8cc76)n5)ccc4C3CCC21C (some centres undefined) ?
Result :: > 100 µM

Query :: So what does the record say about TGI for CC(=O)CC(=O)Nc1ccccc1[N+](=O)[O-] ?
Result :: > 100 µM

Query :: So what does the record say about TGI for O=C1C=CC=C[C@@H]2C(C3OCCO3)CC[C@H]12.[C-]#[O+].[C-]#[O+].[C-]#[O+].[Fe] (some centres undefined) ?
Result :: > 100 µM

Query :: So what does the record say about TGI for C=C1CCC(OC(C)=O)C2(C)C(OC(C)=O)CC3OC3(C)C2C(OC(C)=O)C2C(C)C(=O)OC2C1Cl (centres undefined) ?
Result :: > 100 µM

Query :: So what does the record say about TGI for Cc1cc(C)nc(Sc2c([N+](=O)[O-])ncn2C)n1 ?
Result :: > 100 µM

Query :: So what does the record say about TGI for O=[As]O ?
Result :: > 100 µM

Query :: So what does the record say about TGI for CC(C)C(N=c1c2ccccc2n(O)c2ccccc12)C(=O)O (centres undefined) ?
Result :: > 100 µM

Query :: So what does the record say about TGI for Cc1cc2c(c3c1c1ccccc1n3C)C(=O)c1ccccc1C2=O ?
Result :: > 100 µM

Query :: So what does the record say about TGI for O=C1C=C(c2[nH]c3ccccc3c2C2=CC(=O)c3ccccc3C2=O)C(=O)c2ccccc21 ?
Result :: > 100 µM

Query :: So what does the record say about TGI for CCOCc1cc(=O)c2cc3c(cc2o1)OC(C)(C)CC3 ?
Result :: > 100 µM

Query :: So what does the record say about TGI for COc1ccc2c(c1)CCc1c(C(C)=O)c3ccccc3n1C2 ?
Result :: > 100 µM

Query :: So what does the record say about TGI for CC1(C(=O)Nc2ccc3cc4ccccc4cc3c2)CC2(C)CC(C)(C1)C(O)NC2=O (centres undefined) ?
Result :: > 100 µM

Query :: So what does the record say about TGI for C=CCCCCCCCC(O)C1C[C@H](O)C(CCCCC)O1 (some centres undefined) ?
Result :: 32.8 µM

Query :: So what does the record say about TGI for COc1cc2c(cc1OC)C(C#N)(Cc1ccccc1)N(C(=O)c1ccccc1)C=C2 (centres undefined) ?
Result :: > 100 µM

Each recorded value in this set is attributed to PubChem BioAssay (NCI).
